- Tested on: Cryptococcus neoformans ATCC 90113
- assay-explanation: Antifungal susceptibility testing, Cryptococcus neoformans
- Format: cell-based
- run-parameters: Table 1
readout-name: Cn MFC

The examples below pair each entry with its known result.
| compound | Cn MFC |
| --- | --- |
| COc1ccc(Sc2cc3ccccc3[n+](CCCCCc3ccccc3)c2)cc1.[I-] | — ((-) = >20 μg/mL) |
| [I-].[O-][S+](c1ccc(C(F)(F)F)cc1)c1cc2ccccc2[n+](CCCCCc2ccccc2)c1 (stereo not drawn) | 20 µg/mL |
| Fc1ccccc1Sc1cc2ccccc2[n+](CCCCCc2ccccc2)c1.[I-] | 2.5 µg/mL |
| COc1cccc([S+]([O-])c2cc3ccccc3[n+](CCCCCc3ccccc3)c2)c1.[I-] (stereo not drawn) | — ((-) = >20 μg/mL) |
| [I-].[O-][S+](c1ccc(Br)cc1)c1cc2ccccc2[n+](CCCCCc2ccccc2)c1 (stereo not drawn) | — ((-) = >20 μg/mL) |
| C[C@@H]1[C@H](O)[C@@H](C)/C=C/C=C/C=C/C=C/C=C/C=C/C=C/[C@H](O[C@@H]2O[C@H](C)[C@@H](O)[C@H](N)[C@@H]2O)C[C@@H]2O[C@](O)(C[C@@H](O)C[C@@H](O)[C@H](O)CC[C@@H](O)C[C@@H](O)CC(=O)O[C@H]1C)C[C@H](O)[C@H]2C(=O)O [Amph B, Amphotericin B, reference compound] | 2.5 µg/mL |

Data point: COc1ccccc1Sc1cc2ccccc2[n+](CCCCCc2ccccc2)c1.[I-] ; Cn MFC = 5.0 µg/mL

Data point: Brc1ccccc1Sc1cc2ccccc2[n+](CCCCCc2ccccc2)c1.[I-] ; Cn MFC = 10 µg/mL

Data point: C[n+]1cc(Sc2ccc(C(F)(F)F)cc2)cc2ccccc21.[I-] ; Cn MFC = — ((-) = >20 μg/mL)

Data point: [I-].[O-][S+](c1cc2ccccc2[n+](CCCCCc2ccccc2)c1)c1ccccc1Cl (stereo not drawn) ; Cn MFC = — ((-) = >20 μg/mL)

Data point: [I-].[O-][S+](c1cc(C(F)(F)F)cc(C(F)(F)F)c1)c1cc2ccccc2[n+](CCCCCc2ccccc2)c1 (stereo not drawn) ; Cn MFC = 20 µg/mL

Data point: Fc1ccc(Sc2cc3ccccc3[n+](CCCCCc3ccccc3)c2)cc1.[I-] ; Cn MFC = — ((-) = >20 μg/mL)

Data point: COc1ccc(Sc2cc3ccccc3[n+](C)c2)cc1.[I-] ; Cn MFC = — ((-) = >20 μg/mL)

* * *

- Test system: Aspergillus fumigatus ATCC 90906
- assay-explanation: Antifungal susceptibility testing, Aspergillus fumigatus
- Assay type: cell-based
- run-parameters: Table 1; Aspergillus fumigatus
// reported A fu MIC for each item listed
I only need the number, in µg/mL, no unit after it.

| smiles-text | readout-name | experimental-result |
| --- | --- | --- |
| Brc1ccc(Sc2cc3ccccc3[n+](CCCCCc3ccccc3)c2)cc1.[I-] | A fu MIC | 2.5 |

# evaluate next
Data point: Clc1ccccc1Sc1cc2ccccc2[n+](CCCCCc2ccccc2)c1.[I-] ; A fu MIC = 2.5

* * *

- Test system: Candida albicans ATTC 90028
- assay-explanation: Antifungal susceptibility testing, Candida albicans
- Type: cell-based
- run-parameters: Table 3
readout-name: Ca IC50 (µg/mL)
I only need the number, in µg/mL, no unit after it.

The examples below pair each entry with its known result.
| compound | unit-spec | Ca IC50 |
| --- | --- | --- |
| FC(F)(F)c1ccc2[nH]c3c[n+](CCCCCC4CCCCC4)c4ccccc4c3c2c1.[I-] [JRE-3-4-1] | µg/mL | 2.0 |
| C[n+]1cc2c(c3ccccc3n2CCCCCC2CCCCC2)c2ccccc21.[I-] [JRE-3-100-1] | µg/mL | 0.80 |
| C[n+]1cc2c(c3ccc(Cl)cc3n2CCCCCC2CCCCC2)c2ccccc21.[I-] [JRE-3-84-1] | µg/mL | 0.70 |

# evaluate next
Data point: C[n+]1cc2c(c3ccc(C(F)(F)F)cc3n2CCCCCC2CCCCC2)c2ccccc21.[I-] [JRE-5-31-1] ; Ca IC50 = 0.80
